The following molecules are shown together with reported (fold-selectivity) Cbl-b and C-Cbl Selectivity values.
- system tested: Cbl-b (Homo sapiens (Human), UniProt Q13191)
- assay method text: Cbl-b LCK Ub TR-FRET assay (Cbl-b Lck HTRF)
- Type: biochemical
- cond: ratio C-cbl Lck HTRF IC50 / Cbl-b Lck HTRF IC50
Write the value in x as a bare number.

# count of solved cases: 2
C[C@H](NC1(C)CCC1)c1cc2c(c(C(F)(F)F)c1)CN(c1cccc([C@H](c3nncn3C)C3COC3)c1)C2=O :: 3.1
COCC1(NCc2cc3c(c(C(F)(F)F)c2)CN(c2cccc([C@]4(c5nncn5C)C[C@H](OC)C4)c2)C3=O)CCC1 :: 6.7

// switching to the query molecule
Consider the molecule C[C@H](NC1(C)CCC1)c1cc2c(c(C(F)F)c1)CN(c1cccc([C@@H](c3nncn3C)C3COC3)c1)C2=O (single isomer, unassigned) and give its measured (fold-selectivity) Cbl-b and C-Cbl Selectivity.
14

---

- system tested: Cbl-b (Homo sapiens (Human))
- assay method text: Cbl-b LCK Ub TR-FRET assay (Cbl-b Lck HTRF)
- Type: biochemical
- cond: Cbl-b LCK Ub TR-FRET
reported endpoint: pIC50
// pIC50 is dimensionless: -log10 of concentration (M)

Cn1cnnc1[C@H](c1cccc(N2Cc3c(cc(CNC4(C)CCC4)cc3C(F)(F)F)C2=O)c1)C1CC(OC(F)F)C1 (single isomer, unassigned) [Compound 389] :: 8.29

# get_value(readout= pIC50, system= Cbl-b (Homo sapiens (Human))) for CO[C@H]1C[C@](c2cc(OC(C)C)cc(N3Cc4c(cc(CNC5(C)CCC5)cc4C(F)(F)F)C3=O)c2)(c2nncn2C)C1
7.62

Which pIC50 is reported with Cbl-b (Homo sapiens (Human)) for this entry: Cn1cnnc1C1(c2cccc(N3Cc4c(cc(CNC5(C)CCC5)cc4C(F)(F)F)C3=O)c2)CC(=O)C1 ?
7.06

// fetch Cbl-b (Homo sapiens (Human)) pIC50 for Cn1cnnc1C1(c2cccc(N3Cc4c(cc(CNC5(C)CCC5)cc4C(F)(F)F)C3=O)c2)CC2(CN(S(C)(=O)=O)C2)C1
5.89

What pIC50 appears in the records for this compound with Cbl-b (Homo sapiens (Human))? Cn1cnnc1[C@H](c1cccc(N2Cc3c(cc(CNC4(C)CCC4)cc3C(F)(F)F)C2=O)c1)C1CC(F)C1 (single isomer, unassigned) [Compound 127]
6.39

For the record Cn1cnnc1[C@H](C[C@@H]1COCCO1)c1cccc(N2Cc3c(cc(CNC4(C)CCC4)cc3C(F)(F)F)C2=O)c1 , what value of pIC50 is listed for Cbl-b (Homo sapiens (Human))?
5.89

Record C[C@H](c1cccc(N2Cc3c(cc(CNC4(C)CCC4)cc3C(F)(F)F)C2=O)c1)c1nncn1C (single isomer, unassigned) : what is its pIC50 with Cbl-b (Homo sapiens (Human))?
7.92

What value of pIC50 on Cbl-b (Homo sapiens (Human)) does Cn1cnnc1[C@]1(c2cccc(N3Cc4c(cc(CNC5(C)CCC5)cc4C(F)(F)F)C3=O)c2)C[C@@H](F)C1 have?
7.96

Fill in the recorded pIC50 for this compound, with Cbl-b (Homo sapiens (Human)) as test system: CO[C@H]1C[C@](c2cc(OC3CCCC3)nc(N3Cc4c(cc(CNC5(C)CCC5)cc4C(F)(F)F)C3=O)c2)(c2nncn2C)C1
7.49

Fill in the recorded pIC50 for this compound, with Cbl-b (Homo sapiens (Human)) as test system: Cn1cnnc1[C@](O)(c1cccc(N2Cc3c(cc(CNC4(C)CCC4)cc3C(F)(F)F)C2=O)c1)C1CCC1 (single isomer, unassigned)
5.08

---

- system tested: Cbl-b (Homo sapiens (Human))
- assay method text: Cbl-b LCK Ub TR-FRET assay (Cbl-b Lck HTRF)
- Assay type: biochemical
- cond: ratio C-cbl Lck HTRF IC50 / Cbl-b Lck HTRF IC50
List of fold-selectivity (Cbl-b over C-cbl) values.
Respond with the bare value in x.

Cn1cnnc1[C@H](c1cccc(N2Cc3c(cc(CNC4(C)CCC4)cc3C(F)(F)F)C2=O)c1)C1CC1 (single isomer, unassigned) :: 2.1

Query (compound): Cn1cnnc1[C@H](CC1CCOCC1)c1cccc(N2Cc3c(cc(CNC4(C)CCC4)cc3C(F)(F)F)C2=O)c1 (single isomer, unassigned) ; field requested: fold-selectivity (Cbl-b over C-cbl)
1.4

For the compound shown here, Cn1cnnc1C1(c2cccc(N3Cc4c(cc([C@H](O)CO)cc4C(F)(F)F)C3=O)c2)CCC1 (single isomer, unassigned) , give the reported fold-selectivity (Cbl-b over C-cbl).
2.1

Please look up its fold-selectivity (Cbl-b over C-cbl): Cn1cnnc1[C@]1(c2cccc(N3Cc4c(cc(CNC5(C)CCC5)cc4C(F)(F)F)C3=O)c2)C[C@]2(CCO2)C1
9.2

Give its fold-selectivity (Cbl-b over C-cbl) value. Item: Cn1cnnc1[C@H](c1cccc(N2Cc3c(cc(CNC4(C)CCC4)cc3C(F)(F)F)C2=O)c1)C1CCCC1
1.2

Fill in: fold-selectivity (Cbl-b over C-cbl) of Cn1cnnc1[C@H](c1cccc(N2Cc3c(cc(CNC4(C)CCC4)cc3C(F)(F)F)C2=O)c1)[C@H]1C[C@@H](C#N)C1 (single isomer, unassigned) is ___
1.6

If you can, please state the reported fold-selectivity (Cbl-b over C-cbl) value of Cn1ccnc1[C@@H](c1cccc(N2Cc3c(cc(CNC4(C)CCC4)cc3C(F)(F)F)C2=O)c1)C1COC1 (single isomer, unassigned) .
4.1

Field request: fold-selectivity (Cbl-b over C-cbl) | item: Cn1cnnc1[C@@H](c1cccc(N2Cc3c(cc(CNC4(C)CCC4)cc3C(F)(F)F)C2=O)c1)C1CC(=O)C1 (single isomer, unassigned)
2.1

I would be grateful if you could share the reported fold-selectivity (Cbl-b over C-cbl) for CO[C@H]1C[C@](c2cc(OC3COC3)cc(N3Cc4c(cc(CNC5(C)CCC5)cc4C(F)(F)F)C3=O)c2)(c2nncn2C)C1 .
4.0

Please give the measured fold-selectivity (Cbl-b over C-cbl) for this compound: COC[C@H]1C[C@](c2cccc(N3Cc4c(cc(CNC5(C)CCC5)cc4C(F)(F)F)C3=O)c2)(c2nncn2C)C1
1.4

Dear colleague, I am looking for the recorded fold-selectivity (Cbl-b over C-cbl) of the following compound: Cn1cnnc1[C@]1(c2cccc(N3Cc4c(Cl)cc(CNC5(C)CCC5)cc4C3=O)c2)C[C@H](F)C1
1.7

---

List of fold-selectivity (Cbl-b over C-cbl) values.
- system tested: UniProt Q13191
- assay method text: Cbl-b LCK Ub TR-FRET assay (Cbl-b Lck HTRF)
- Type: biochemical
- cond: ratio C-cbl Lck HTRF IC50 / Cbl-b Lck HTRF IC50

Quick one: fold-selectivity (Cbl-b over C-cbl) of Cn1cnnc1C(F)(c1cccc(N2Cc3c(cc(CNC4(C)CCC4)cc3C(F)(F)F)C2=O)c1)C1(F)COC1 (stereo in doubt) [Compound 403] ?
1.3x

For Cn1cnnc1C1(c2cccc(N3Cc4c(cc(CNC5(C)CCC5)cc4C(F)(F)F)C3=O)c2)CCCC1 [Compound 292] , what is its reported fold-selectivity (Cbl-b over C-cbl)?
2.4x

---

- system tested: Human Cbl-b (residues 40-426) (Homo sapiens (Human))
- Sequence (Q13191 40-426): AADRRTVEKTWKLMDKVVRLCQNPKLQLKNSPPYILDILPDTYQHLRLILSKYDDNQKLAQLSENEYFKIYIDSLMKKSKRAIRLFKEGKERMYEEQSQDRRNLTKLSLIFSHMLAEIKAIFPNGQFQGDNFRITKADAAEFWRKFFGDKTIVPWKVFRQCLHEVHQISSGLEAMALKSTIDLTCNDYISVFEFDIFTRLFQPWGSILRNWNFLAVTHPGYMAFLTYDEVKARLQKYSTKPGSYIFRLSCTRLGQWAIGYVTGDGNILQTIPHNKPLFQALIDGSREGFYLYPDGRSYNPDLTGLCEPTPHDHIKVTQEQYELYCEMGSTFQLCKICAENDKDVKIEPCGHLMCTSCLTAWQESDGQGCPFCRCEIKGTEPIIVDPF
reported endpoint: pKd
Please report pKd as the negative decimal logarithm of the molar concentration, giving only the number.

Worked set:
CO[C@H]1C[C@](c2cccc(N3Cc4c(cc(CNCCC5CCC5(F)F)cc4C(F)(F)F)C3=O)c2)(c2nncn2C)C1 (stereo partly drawn) :: 8.43
CO[C@H]1C[C@](c2cccc(N3Cc4c(cc(CN5CC(C)(O)C5)cc4C(F)(F)F)C3=O)c2)(c2nncn2C)C1 :: 6.92
Cn1cnnc1[C@@H](c1cccc(N2Cc3c(cc(CNC4(C)CCC4)cc3C(F)(F)F)C2=O)c1)C1(F)COC1 (single isomer, unassigned) :: 9.10
COc1cc(N2Cc3c(cc(CNC4(C)CCC4)cc3C(F)(F)F)C2=O)cc([C@]2(c3nncn3C)C[C@@H](OC)C2)c1 :: 8.10

Report pKd for COCCC1(NCc2cc3c(c(C(F)(F)F)c2)CN(c2cccc([C@]4(c5nncn5C)C[C@H](OC)C4)c2)C3=O)CCC1 tested on Human Cbl-b (residues 40-426) (Homo sapiens (Human)).
7.74

Form field: pKd recorded for Cn1cnnc1[C@H](c1cccc(N2Cc3c(cc(CNC4(C)CCC4)cc3C(F)(F)F)C2=O)c1)C1(F)COC1 (single isomer, unassigned) with Human Cbl-b (residues 40-426) (Homo sapiens (Human)) (enter value)
8.57

Please tell me: pKd of COCC1(NCc2cc3c(c(C(F)(F)F)c2)CN(c2cccc([C@]4(c5nncn5C)C[C@H](OC)C4)c2)C3=O)CC1 , system Human Cbl-b (residues 40-426) (Homo sapiens (Human))?
8.31

Param readout= pKd; system= Human Cbl-b (residues 40-426) (Homo sapiens (Human)); entry= CC1=C[C@@](c2cc(NC3CCC3)nc(N3Cc4c(cc(CN5CCN(C)C[C@@H]5C(C)C)cc4C(F)(F)F)C3=O)c2)(c2nncn2C)C1 (single isomer, unassigned) ; returns value.
8.43
